For each entry below, report its log10 of IC50 value.
Target: PLK4 (Homo sapiens)
Sequence (O00444 1-970): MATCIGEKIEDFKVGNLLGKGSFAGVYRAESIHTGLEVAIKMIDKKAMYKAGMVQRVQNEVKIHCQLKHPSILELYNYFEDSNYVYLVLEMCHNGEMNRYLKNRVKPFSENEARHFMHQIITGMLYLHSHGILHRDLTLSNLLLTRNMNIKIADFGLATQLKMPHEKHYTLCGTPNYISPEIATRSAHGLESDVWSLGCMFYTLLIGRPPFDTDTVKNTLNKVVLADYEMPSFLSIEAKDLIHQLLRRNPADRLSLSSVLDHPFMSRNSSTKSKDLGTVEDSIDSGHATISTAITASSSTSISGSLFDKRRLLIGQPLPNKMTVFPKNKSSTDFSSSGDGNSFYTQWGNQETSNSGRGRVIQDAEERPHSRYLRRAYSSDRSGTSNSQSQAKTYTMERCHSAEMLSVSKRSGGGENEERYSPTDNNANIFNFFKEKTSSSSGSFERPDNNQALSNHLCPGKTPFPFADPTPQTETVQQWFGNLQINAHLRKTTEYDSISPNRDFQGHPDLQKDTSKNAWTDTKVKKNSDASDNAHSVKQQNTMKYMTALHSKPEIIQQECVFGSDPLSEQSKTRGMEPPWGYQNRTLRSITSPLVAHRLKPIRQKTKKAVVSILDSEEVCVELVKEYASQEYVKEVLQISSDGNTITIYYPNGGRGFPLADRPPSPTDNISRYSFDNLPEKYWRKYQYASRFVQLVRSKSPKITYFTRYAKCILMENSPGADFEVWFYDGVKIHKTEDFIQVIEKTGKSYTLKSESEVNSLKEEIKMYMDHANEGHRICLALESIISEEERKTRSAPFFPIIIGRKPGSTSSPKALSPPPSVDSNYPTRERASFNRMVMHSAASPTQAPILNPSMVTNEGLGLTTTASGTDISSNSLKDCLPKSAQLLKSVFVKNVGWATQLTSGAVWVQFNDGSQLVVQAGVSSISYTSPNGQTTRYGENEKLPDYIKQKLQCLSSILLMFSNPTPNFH
Test: PLK4 NanoBRET target engagement assay
Details: HEK293 T cells transfected with PLK4 NanoLuc fusion vector; K-5 tracer; 2 hrs incubation
# values: log10(IC50), units µM

INPUT: # get_value(readout='log10 of IC50', item= COCCn1cc(-c2nc(N(C)c3ccc(S(C)(=O)=O)cc3F)nc(Nc3cc(C)[nH]n3)c2C2CC2)c(C)n1 )
OUTPUT: -1.74

INPUT: Suppose we examine the compound COc1c(Nc2cc(C)[nH]n2)nc(Oc2ccc(S(C)(=O)=O)cc2Cl)nc1-c1cnn(C)c1 ; what log10 of IC50 value has been reported?
OUTPUT: -0.05

INPUT: Query: log10 of IC50; subject: Cc1cc(Nc2nc(N(C)c3c(F)cc(S(C)(=O)=O)cc3F)nc(-c3cc(C(=O)N(C)C)n(C)n3)c2C2CC2)n[nH]1
OUTPUT: -2.30

INPUT: Fill in the blank: the reported log10 of IC50 of Cc1cc(Nc2nc(N(C)c3ccc(S(C)(=O)=O)cc3F)cc(-c3cnn(C)c3)c2C2CC2)n[nH]1 [Compound 20] is ____.
OUTPUT: -1.16

INPUT: Param item = COCCn1ccc(-c2nc(N(C)c3c(F)cc(S(C)(=O)=O)cc3F)nc(Nc3cc(C)[nH]n3)c2C2CC2)n1 ; retrieve measured log10 of IC50.
OUTPUT: -1.82

INPUT: Entry COc1c(Nc2cc(C)[nH]n2)nc(N(C)c2ccc3c(c2)CCS3(=O)=O)nc1-c1cnn(C)c1 : reported log10 of IC50 = ?
OUTPUT: 0.00

INPUT: What value of log10 of IC50 has been reported for the following compound? Cc1cc(Nc2nc(N(C)c3c(F)cc(C(=O)N4CCC4)cc3F)nc(-c3cn(C)cn3)c2C2CC2)n[nH]1
OUTPUT: -1.19
